Listed below: log10 IC50 values for each entry.
molecular target: human HSV DNA polymerase UL30 (Human herpesvirus 1 (strain 17) (HHV-1) (Human herpes simplex virus 1)); test: HSV polymerase biochemical assay (molecular beacon-based)
Result Type: log10 IC50 (log10 of the value in nM)

# Compound, log10 IC50
data = [
    ("CC(C)(C)NS(=O)(=O)C1(CN2CCn3c(ccc(C(=O)NCc4ccc(Cl)cc4)c3=O)C2=O)CC1", 1.37),
    ("C[S@](=N)(=O)C1(CN2CCn3c(ccc(C(=O)NCc4ccc(Cl)cc4)c3=O)C2=O)CC1 (single isomer, unassigned)", 3.28),
    ("C[S+]([O-])C1(CN2CCn3c(ccc(C(=O)NCc4ccc(Cl)cc4)c3=O)C2=O)CC1 (centres unmarked)", 3.25),
    ("CS(=O)(=O)CC1(CN2CCn3c(ccc(C(=O)NCc4ccc(Cl)cc4)c3=O)C2=O)CC1", 2.37),
    ("CN1CCC(S(=O)(=O)C2(CN3CCn4c(ccc(C(=O)NCc5ccc(C#N)c(F)c5)c4=O)C3=O)CC2)C1 (centres unmarked)", 2.31),
    ("CS(=O)(=O)C1(CN2CCn3c(ccc(C(=O)NCC4CCC5(CC4)CC5)c3=O)C2=O)CC1", 4.11),
    ("CS(=O)(=O)CCN1CCn2c(c(Br)cc(C(=O)NCc3ccc(Cl)cc3)c2=O)C1=O", 2.76),
    ("N#Cc1ccc(CNC(=O)c2ccc3n(c2=O)CCN(CC2(S(=O)(=O)CC4(C(F)(F)F)CC4)CC2)C3=O)cc1", 2.48),
    ("O=C(NCc1ccc(Cl)cc1)c1ccc2n(c1=O)CCN(CCS(=O)(=O)C1CC1)C2=O", 2.62),
    ("N#CC1(CS(=O)(=O)C2(CN3CCn4c(ccc(C(=O)NCc5ccc(Cl)cc5)c4=O)C3=O)CC2)CC1", 1.53),
    ("N#Cc1ccc(CNC(=O)c2ccc3n(c2=O)CCN(CC2(S(=O)(=O)C4CC4)CC2)C3=O)cc1", 1.44),
    ("O=C(NCc1ccc(Cl)cc1)c1ccc2n(c1=O)CCN(CC1(S(=O)(=O)CC3(C(F)(F)F)CC3)CC1)C2=O", 2.27),
    ("CC(CN1CCn2c(ccc(C(=O)NCc3ccc(Cl)cc3)c2=O)C1=O)S(=O)(=O)C1CC1 (centres unmarked)", 3.74),
    ("CC(C)(c1ncno1)S(=O)(=O)C1(CN2CCn3c(ccc(C(=O)NCc4ccc(Cl)cc4)c3=O)C2=O)CC1", 1.00),
    ("CCS(=O)(=O)C1(CN2CCn3c(ccc(C(=O)NCc4ccc(C#N)cc4)c3=O)C2=O)CC1", 1.84),
    ("C[S@+]([O-])C1(CN2CCn3c(ccc(C(=O)NCc4ccc(C#N)cc4)c3=O)C2=O)CC1", 3.96),
    ("O=C(NCc1ccc(Cl)cc1)c1ccc2n(c1=O)CCN(CC1(S(=O)(=O)C3CCOCC3)CC1)C2=O", 1.60),
    ("N#Cc1ccc(CNC(=O)c2ccc3n(c2=O)CCN(CC2(S(=O)(=O)C4(C(F)F)CC4)CC2)C3=O)cc1", 1.69),
    ("C[S@@+]([O-])C1(CN2CCn3c(ccc(C(=O)NCc4ccc(C#N)cc4)c3=O)C2=O)CC1", 3.44),
    ("N#Cc1ccc(CNC(=O)c2ccc3n(c2=O)CCN(CC2(S(=O)(=O)C4COC4)CC2)C3=O)cc1F", 1.80),
    ("CS(=O)(=O)C1(CN2CCn3c(ccc(C(=O)NCc4ccc(C#N)c(F)c4)c3=O)C2=O)CC1", 2.02),
    ("N#Cc1ccc(CNC(=O)c2ccc3n(c2=O)CCN(CC2(S(=O)(=O)C4(C(F)(F)F)CC4)CC2)C3=O)cc1", 2.09),
    ("CC1(S(=O)(=O)C2(CN3CCn4c(ccc(C(=O)NCc5ccc(C#N)cc5)c4=O)C3=O)CC2)CC1", 1.52),
    ("Cc1cc(C(=O)NCc2ccc(C#N)cc2)c(=O)n2c1C(=O)N(CC1(S(=O)(=O)C3CC3)CC1)CC2", 1.67),
    ("N#Cc1ccc(CNC(=O)c2ccc3n(c2=O)CCN(CC2(S(=O)(=O)C4(CF)CC4)CC2)C3=O)cc1", 1.45),
    ("CN(CCN1CCn2c(ccc(C(=O)NCc3ccc(Cl)cc3)c2=O)C1=O)S(C)(=O)=O", 2.93),
    ("CN(CCN1CCn2c(c(C(F)F)cc(C(=O)NCc3ccc(Cl)cc3)c2=O)C1=O)S(C)(=O)=O", 3.80),
    ("C[S@@](=N)(=O)C1(CN2CCn3c(ccc(C(=O)NCc4ccc(Cl)cc4)c3=O)C2=O)CC1 (single isomer, unassigned)", 2.57),
    ("CN(CCN1CCn2c(c(CCCO)cc(C(=O)NCc3ccc(Cl)cc3)c2=O)C1=O)S(C)(=O)=O", 3.26),
]

Source: patent US12466821B2
